B1: Intersectin-1, residues 1156 to 1213; numbered along this chain, Q15811 (parent)
chain: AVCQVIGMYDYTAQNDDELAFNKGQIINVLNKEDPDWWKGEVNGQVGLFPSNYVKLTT

Variants of: B1
experiment: abundance fitness (aPCA) (normalised: wild type 0, dead -1); higher = more abundant; growth selection in yeast, the domain comes from the species named
settings: Homo sapiens
We begin with a simple list: items and their reported abundance fitness.
measured-attribute: abundance fitness

{"variant-designation": "N52W", "recorded-measurement": -0.446}
{"variant-designation": "L48M", "recorded-measurement": -0.111}
{"variant-designation": "T58L", "recorded-measurement": -0.187}
